Where do the numbers come from? From patent EP4603105A1.

// reported IC50 per item
- Tested on: human lung cancer strain NCI-H441
- Assay type: cell-based
Where a SMILES comes first, the peptide text is derived from it. Bridges are numbered along the chain shown (N, C = ends). [ ]: non-standard residue; d: D form. The star is where a group is joined. hPhe(3-Cl-4-CF3) = N[C@@H](CCc1ccc(C(F)(F)F)c(Cl)c1)C(=O)O; NEtPhe(4-Me) = CCN[C@@H](Cc1ccc(C)cc1)C(=O)O; NMeGly(cPent) = CN[C@H](C(=O)O)C1CCCC1; Hyp = O=C(O)[C@@H]1C[C@@H](O)CN1; NMeD = CN[C@@H](CC(=O)O)C(=O)O; NMeL = CN[C@@H](CC(C)C)C(=O)O; Morpholide = C1CN(*)CCO1; Ac5c = NC1(C(=O)O)CCCC1; X4 = C1CCC(*)OC1; Sar = CNCC(=O)O
Number only, in nM; omit the unit.

INSERT INTO assay_data (compound, experimental_value) VALUES
  ('CCO[C@@H]1C[C@H]2C(=O)NC3(CCC3)C(=O)N(C)[C@@H](C3CCCC3)C(=O)N(C)[C@H](C(=O)N(C)C)CC(=O)N(C)[C@@H](CC)C(=O)N[C@@H]([C@@H](C)CC)C(=O)N3CC[C@H]3C(=O)N(C)[C@H]3CC(C)=CCN(C3=O)[C@@H](Cc3ccc(C(F)(F)F)cc3)C(=O)N(C)CC(=O)N[C@@H](CCc3cc(F)c(C(F)(F)F)c(F)c3)C(=O)N2C1', 128),
  ('CCC[C@H]1C(=O)N[C@@H](C2CCCCC2)C(=O)N(C)CC(=O)N(C)[C@H]2C/C=C\CCN(C2=O)[C@@H](Cc2ccc(C)cc2)C(=O)N(C)CC(=O)N[C@@H](CCc2ccc(C(F)(F)F)c(Cl)c2)C(=O)N2C[C@H](OCC)C[C@H]2C(=O)NC2(CC(C)(C)C2)C(=O)N(C)[C@@H](C2CCCC2)C(=O)N(C)[C@H](C(=O)N(C)C)CC(=O)N1C', 8.3),
  ('CC[C@H](C)[C@@H]1NC(=O)[C@H](CC(C)C)N(C)C(=O)C[C@@H](C(=O)N2CCOCC2)N(C)C(=O)[C@H](C2CCCC2)N(C)C(=O)C2(CCCC2)NC(=O)[C@@H]2C[C@@H](OC3CCCCO3)CN2C(=O)[C@H](CCc2ccc(C(F)(F)F)c(Cl)c2)NC(=O)CN(C)C(=O)[C@H](Cc2ccc(C)cc2)N(CC)C(=O)CN(C)C(=O)CN(C)C1=O (stereo partly shown) [PP0068] ([NMeL]I[Sar][Sar][NEtPhe(4-Me)][Sar][hPhe(3-Cl-4-CF3)][Hyp](X4)[Ac5c][NMeGly(cPent)][NMeD]-Morpholide; lactam N-11)', 9.1);

Query: # return recorded IC50 for input "CCC[C@H]1C(=O)N[C@@H]([C@@H](C)CC)C(=O)N(C2CC2)CC(=O)N(C)[C@H]2C/C=C\CCN(C2=O)[C@@H](CC2CCCCC2)C(=O)N(C)CC(=O)N[C@@H](CCc2ccc(C(F)(F)F)c(OC)c2)C(=O)N2C[C@H](OCC)C[C@H]2C(=O)N(C)C2(CCC2)C(=O)N(C)[C@@H](C(CC)CC)C(=O)N(C)[C@H](C(=O)N(C)C)CC(=O)N1C"
Response: 33.9

Query: # return recorded IC50 for input "CCO[C@@H]1C[C@H]2C(=O)NC3(CCC3)C(=O)N(C)[C@@H](C3CCCC3)C(=O)N(C)[C@H](C(=O)N3CCOCC3)CC(=O)N(C)[C@@H](C)C(=O)N[C@@H]([C@@H](C)CC)C(=O)N(C)CC(=O)N(C)[C@H]3CCCCCN(C3=O)[C@@H](Cc3ccc(C(F)(F)F)cc3)C(=O)N(C)CC(=O)N[C@@H](CCc3cc(F)c(C(F)(F)F)c(F)c3)C(=O)N2C1"
Response: 19.9
